Values compiled from PubChem BioAssay (EPA / NIEHS).

# METHOD: ATG_AP_2_CIS: Attagene CIS-FACTORIAL HepG2 Assay for human Activator Protein 2 (AP-2) (AID 2282932)
# CONDITION LABEL: HepG2 AP-2 cis-reporter, Attagene transcription factor profiling; actives raise or lower the signal
Calls of active or inactive are those of the source. How the source made its calls: active means hit-call score of the fitted dose curve at least 0.9, where 1 is the maximum; inactive means score below 0.9.
Field 'call' accepts yes (1) for active, no (0) for inactive

Example results:
COMPOUND	DISCRETE LABEL
COC(=O)c1ccccc1N	no (0)
COc1cc(C=O)cc2c1[C@H](COC(N)=O)[C@]1(OC(C)=O)ON2C[C@H]2[C@@H]1N2C(C)=O	yes (1)
O=C1CCCO1	no (0)
ClC1=C(Cl)C2(Cl)C3C(Cl)C=CC3C1(Cl)C2(Cl)Cl (configuration not stated)	no (0)
Cc1ccc(N)cc1	no (0)

Test call for this compound, please: `Cc1cc(N=Nc2ccccc2C)ccc1N`
no (0)

Test call for this compound, please: `COC(=O)Nc1nc2ccccc2[nH]1`
no (0)

Could you please tell me the result logged for `Cn1cc(-c2ccccc2)c(=O)c(-c2cccc(C(F)(F)F)c2)c1` in this assay?
no (0)
